These measurements were taken from patent US6835382B2.

Biological target: murine E^d MHC class II allele (Mus musculus, UniProt P01904+P01915)
Sequence (P01904 26-255): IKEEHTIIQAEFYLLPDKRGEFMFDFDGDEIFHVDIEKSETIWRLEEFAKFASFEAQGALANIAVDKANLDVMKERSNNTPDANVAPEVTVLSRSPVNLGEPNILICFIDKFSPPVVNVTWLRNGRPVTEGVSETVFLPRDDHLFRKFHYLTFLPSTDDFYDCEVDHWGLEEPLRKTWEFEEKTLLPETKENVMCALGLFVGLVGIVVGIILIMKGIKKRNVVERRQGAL
Sequence (P01915 27-264 limits assumed): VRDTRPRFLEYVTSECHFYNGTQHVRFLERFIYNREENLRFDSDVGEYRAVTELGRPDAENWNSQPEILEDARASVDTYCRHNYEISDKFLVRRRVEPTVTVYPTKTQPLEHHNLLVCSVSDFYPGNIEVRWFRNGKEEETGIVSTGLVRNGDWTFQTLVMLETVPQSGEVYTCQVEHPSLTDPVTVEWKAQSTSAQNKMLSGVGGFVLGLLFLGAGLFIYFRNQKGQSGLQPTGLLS
Test: simultaneous assay, E^d allele (A20 APC, G28.C9 T hybridoma, HEL106-116; HT-2 [3H]TdR readout)
Assay type: cell-based
Parameters: The A20 and CH27 B cell lymphoma lines express H-2^d and H-2^k alleles, respectively; endogenous in cells; host or cells: A20 B cell lymphoma (mitomycin C-treated or paraformaldehyde-fixed)
Conditions: Table 15; AE peptide 16 μM; supernatant 1:4
measuredParameter: Times Baseline Response, E^d
Lab note: record just the number, no unit beside it.

Worked set:
Ac-LRNKNPK-NH2 [AE349] = 25.3
Ac-LRMK N PK-NH2 (Ac-LRMKNPK-NH2) [AE232] = 24.3
Ac-LRMKLP F-NH2 (Ac-LRMKLPF-NH2) [AE248] = 34.7

Input: # assay system murine E^d MHC class II allele (Mus musculus, UniProt P01904+P01915): give Times Baseline Response, E^d of Ac-ARNKLPK-NH2 [AE344]
Output: 7.7

Input: Enter recorded Times Baseline Response, E^d with murine E^d MHC class II allele (Mus musculus, UniProt P01904+P01915) for Ac-LR N KLPK-NH2 (Ac-LRNKLPK-NH2) [AE202] here.
Output: 34.4

Input: Lab note: murine E^d MHC class II allele (Mus musculus, UniProt P01904+P01915) assay, enter Times Baseline Response, E^d for Ac-ARNKNPF-NH2 [AE347] here
Output: 1.0

Input: Report value: Times Baseline Response, E^d, system: murine E^d MHC class II allele (Mus musculus, UniProt P01904+P01915), substance: Ac-LRLKYPK-NH2 [AE301]
Output: 30.7
